Measured on: ACVR2B, Q13705
Sequence (Q13705 whole entry, looked up): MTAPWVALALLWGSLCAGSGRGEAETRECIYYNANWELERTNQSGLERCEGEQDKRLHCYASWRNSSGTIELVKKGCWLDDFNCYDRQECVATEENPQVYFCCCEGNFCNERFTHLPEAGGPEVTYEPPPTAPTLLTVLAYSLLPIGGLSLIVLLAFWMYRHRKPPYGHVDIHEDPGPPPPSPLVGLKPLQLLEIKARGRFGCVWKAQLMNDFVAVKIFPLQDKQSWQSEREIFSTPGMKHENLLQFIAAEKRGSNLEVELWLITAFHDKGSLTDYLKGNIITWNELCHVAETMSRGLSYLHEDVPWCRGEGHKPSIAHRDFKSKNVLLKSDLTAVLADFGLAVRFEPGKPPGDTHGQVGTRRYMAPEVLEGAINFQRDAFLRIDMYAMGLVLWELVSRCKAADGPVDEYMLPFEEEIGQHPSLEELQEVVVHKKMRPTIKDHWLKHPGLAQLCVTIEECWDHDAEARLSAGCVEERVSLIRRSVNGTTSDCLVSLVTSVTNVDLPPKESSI
Measurement notes: Kd (SPR)
Metric: Kd (nM)
Reply numerically in nM, unit not repeated.

Prompt: # Kd lookup, item unnamed (protein) chain 1: QVQLVQSGAEVKKPGASVKVSCKASGYTFTSTGINWVRQAPGQGLEWMGTINPVTGGTSYAQKFQGRVTMTRDTSISTAYMELSRLRSDDTAVYYCARGGYFDYWGQGTLVTVSS chain 2: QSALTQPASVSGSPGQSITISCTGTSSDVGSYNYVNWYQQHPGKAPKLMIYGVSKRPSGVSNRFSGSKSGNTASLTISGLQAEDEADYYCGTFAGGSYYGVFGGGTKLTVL
Response: 234

Prompt: # Kd lookup, item unnamed (protein) chain 1: QVQLVQSGAEVKKPGASVKVSCKASGYTFTSTYINWVRQAPGQGLEWMGTINPVTGNTSYAQKFQGRVTMTRDTSISTAYMELSRLRSDDTAVYYCARGGYFDYWGQGTLVTVSS chain 2: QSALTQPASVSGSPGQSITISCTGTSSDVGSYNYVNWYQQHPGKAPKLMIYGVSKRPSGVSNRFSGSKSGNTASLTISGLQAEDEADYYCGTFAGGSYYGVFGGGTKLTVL
Response: 7.87

Prompt: # Kd lookup, item unnamed (protein) chain 1: QVQLVQSGAEVKKPGASVKVSCKASGYTFTSSYINWVRQAPGQGLEWMGTINPVSGSTSYAQKFQGRVTMTRDTSISTAYMELSRLRSDDTAVYYCARLAIGDSYWGQGTLVTVSS chain 2: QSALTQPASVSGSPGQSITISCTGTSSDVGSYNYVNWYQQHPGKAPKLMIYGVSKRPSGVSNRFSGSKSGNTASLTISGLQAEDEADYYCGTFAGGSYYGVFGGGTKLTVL
Response: 111

Prompt: # Kd lookup, item unnamed (protein) chain 1: QVQLVQSGAEVKKPGASVKVSCKASGYTFTSSYINWVRQAPGQGLEWMGTINPVSGSTSYAQKFQGRVTMTRDTSISTAYMELSRLRSDDTAVYYCARGGYADYWGQGTLVTVSS chain 2: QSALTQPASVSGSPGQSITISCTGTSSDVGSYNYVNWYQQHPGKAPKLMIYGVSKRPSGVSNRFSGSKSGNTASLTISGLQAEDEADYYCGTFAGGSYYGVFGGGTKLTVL
Response: 76.7

Others:
Prompt: # Kd lookup, item unnamed (protein) chain 1: QVQLVQSGAEVKKPGASVKVSCKASGYTFTSSYINWVRQAPGQGLEWMGTINPVSGSTSYAQKFQGRVTMTRDTSISTAYMELSRLRSDDTAVYYCARSWGYFDVWGQGTLVTVSS chain 2: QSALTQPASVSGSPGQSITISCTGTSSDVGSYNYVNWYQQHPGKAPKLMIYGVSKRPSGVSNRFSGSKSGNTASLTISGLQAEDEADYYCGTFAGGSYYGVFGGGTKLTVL
Response: 106
